Experiment: Inhibition of mouse IL5-mediated mouse Y16 cell proliferation after 48 hrs by WST1 assay
pIC50: −log10 of the molar value.
measuredParameter: pIC50

{"compoundString": "O=C(Nc1ccc2oc(-c3ccccc3)c(CO)c(=O)c2c1)C1CCCCC1", "measuredParameter": "pIC50", "inequalityOperator": "<", "reportedMeasurement": 4.52}
{"compoundString": "O=C(Nc1ccc2oc(-c3ccccc3)c(CO)c(=O)c2c1)c1cnccn1", "measuredParameter": "pIC50", "inequalityOperator": "<", "reportedMeasurement": 4.52}
{"compoundString": "CC(=O)OCc1c(-c2ccccc2)oc2ccc(NC(=O)C3CCCCC3)cc2c1=O", "measuredParameter": "pIC50", "inequalityOperator": "=", "reportedMeasurement": 4.74}
{"compoundString": "CC(=O)OCc1c(-c2ccc(F)cc2)oc2ccc(NC(=O)c3ccccc3)cc2c1=O", "measuredParameter": "pIC50", "inequalityOperator": "<", "reportedMeasurement": 4.52}
{"compoundString": "CC(=O)OCc1c(C2CCCCC2)oc2ccc(NC(=O)c3ccccc3)cc2c1=O", "measuredParameter": "pIC50", "inequalityOperator": "=", "reportedMeasurement": 5.21}
{"compoundString": "CC(=O)OCc1c(C2CCCCC2)oc2ccc(NC(=O)Nc3ccccc3)cc2c1=O", "measuredParameter": "pIC50", "inequalityOperator": "<", "reportedMeasurement": 4.52}
{"compoundString": "CC(=O)OCc1c(C2CCCCC2)oc2ccc(NCc3ccccc3)cc2c1=O", "measuredParameter": "pIC50", "inequalityOperator": "=", "reportedMeasurement": 4.72}

* * *

Collected pIC50 values appear next to each entry.
Assay: Inhibition of mouse IL5-mediated mouse Y16 cell proliferation after 48 hrs by WST1 assay
pIC50: −log10 of the molar value.

{"compoundString": "CC(=O)OCc1c(-c2ccccc2)oc2ccc(NC(=O)c3cnccn3)cc2c1=O", "inequalityOperator": "<", "pIC50": 4.52}
{"compoundString": "CC(C)(C)C(=O)OCc1c(C2CCCCC2)oc2ccc(NC(=O)c3ccccc3)cc2c1=O", "inequalityOperator": "<", "pIC50": 4.52}
{"compoundString": "O=C(Nc1ccc2oc(-c3ccc(F)cc3)c(CO)c(=O)c2c1)c1ccccc1", "inequalityOperator": "<", "pIC50": 4.52}
{"compoundString": "CC(=O)OCc1c(-c2ccccc2)oc2ccc(NC(=O)c3ccccc3)cc2c1=O", "inequalityOperator": "=", "pIC50": 4.80}
{"compoundString": "O=C(Nc1ccc2oc(C3CCCCC3)c(CO)c(=O)c2c1)c1ccccc1", "inequalityOperator": "=", "pIC50": 5.00}
{"compoundString": "CC(=O)OCc1c(C2CCCCC2)oc2ccc(NS(=O)(=O)c3ccccc3)cc2c1=O", "inequalityOperator": "<", "pIC50": 4.52}
{"compoundString": "O=C(Nc1ccc2oc(C3CCCCC3)c(CO)c(=O)c2c1)C1CCCCC1", "inequalityOperator": "<", "pIC50": 4.52}
{"compoundString": "CC(=O)OCc1c(C2CCCCC2)oc2ccc(NC(=O)C3CCCCC3)cc2c1=O", "inequalityOperator": "=", "pIC50": 4.70}
{"compoundString": "CC(C)C(=O)OCc1c(C2CCCCC2)oc2ccc(NC(=O)c3ccccc3)cc2c1=O", "inequalityOperator": "=", "pIC50": 4.72}
{"compoundString": "O=C(Nc1ccc2oc(-c3ccccc3)c(CO)c(=O)c2c1)c1ccccc1", "inequalityOperator": "=", "pIC50": 4.66}

The reported measurements were obtained from BindingDB's records for doi:10.1016/j.bmc.2015.03.045.
